Assay: Metabolic stability in mice plasma
Assay type: in vitro ADME
Conditions: mouse, 37 °C
experimental_readout: half-life at 50 μM (h)
Your answer is read as h, so omit the unit and give the number.

Suppose we examine the compound CC(C)Cc1ccc(C(C)C(=O)OC(COC(=O)CCC(=O)OCC2OC(O)C(O)C(O)C2O)C2OC(=O)C(O)=C2O)cc1 (stereo not shown) ; what half-life at 50 μM value has been reported?
1.03

###

Experiment: In vitro chemical stability in phosphate buffers
Assay type: physicochemical
Details: pH 7.4 phosphate buffer, 37 °C
experimental_readout: half-life at 50 μg/ml (h)
Your answer is read as h, so omit the unit and give the number.

Suppose we examine the molecule CC(C)Cc1ccc(C(C)C(=O)OC(COC(=O)CCC(=O)OCC2OC(O)C(O)C(O)C2O)C2OC(=O)C(O)=C2O)cc1 (stereo not shown) ; what half-life at 50 μg/ml value has been reported?
12.8

###

Experiment: Metabolic stability in mice brain homogenate
Type: in vitro ADME
Details: mouse, 37 °C
experimental_readout: half-life at 50 μM (min)
Your answer is read as min, so omit the unit and give the number.

Suppose we examine the compound CC(C)Cc1ccc(C(C)C(=O)OC(COC(=O)CCC(=O)OCC2OC(O)C(O)C(O)C2O)C2OC(=O)C(O)=C2O)cc1 (stereo not shown) ; what half-life at 50 μM value has been reported?
21.3
